# targetSystem: Plasma Kallikrein (Homo sapiens (Human), UniProt P03952)
# Sequence (P03952 391-638): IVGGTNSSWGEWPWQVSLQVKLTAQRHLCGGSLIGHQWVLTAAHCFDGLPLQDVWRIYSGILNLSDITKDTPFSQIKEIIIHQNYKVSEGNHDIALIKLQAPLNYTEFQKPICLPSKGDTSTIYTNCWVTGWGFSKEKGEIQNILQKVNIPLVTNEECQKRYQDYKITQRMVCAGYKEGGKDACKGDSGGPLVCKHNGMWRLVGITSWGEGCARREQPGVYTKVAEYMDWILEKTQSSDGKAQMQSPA
# Sequence (P03952 20-390 partner): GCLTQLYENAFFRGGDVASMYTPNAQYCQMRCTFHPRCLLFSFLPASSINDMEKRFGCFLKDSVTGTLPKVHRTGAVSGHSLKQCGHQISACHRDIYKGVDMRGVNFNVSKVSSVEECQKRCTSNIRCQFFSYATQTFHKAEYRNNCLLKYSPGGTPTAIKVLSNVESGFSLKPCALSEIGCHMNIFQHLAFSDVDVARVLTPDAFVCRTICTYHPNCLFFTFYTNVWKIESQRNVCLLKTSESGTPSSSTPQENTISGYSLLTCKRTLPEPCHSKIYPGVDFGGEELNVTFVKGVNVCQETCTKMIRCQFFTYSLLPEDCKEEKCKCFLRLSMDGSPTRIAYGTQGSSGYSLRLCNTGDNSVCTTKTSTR
# protocolDescription: Determination of related protease inhibition: Plasma Kallikrein (fluorogenic substrate at Km)
# assayContext: 25° C., read-out: IC50 (human PKal)
experimentalReadout: IC50

- compound: "CC(C)(O)[C@H]1CCN(c2ccc(CNc3ccc4c(N)ncc(Cl)c4c3)cn2)C1"
  result: "> 40 µM"
- compound: "Nc1nccc2c(CCc3ccnc(OCC4CCn5ccnc5C4)c3)cccc12 (stereo not drawn)"
  result: "> 40 µM"
- compound: "Nc1nccc2c(NCc3ccc(N4CCn5cnnc5C4)nc3)cccc12"
  result: "> 40 µM"
- compound: "CN1CCC(OCc2ccc(CNc3ccc4nc(N)ccc4c3)cc2)CC1"
  result: "10 to 40 µM"
- compound: "CC(=O)N1CC2CC1CC2COc1cc(CNc2ccc3c(N)nccc3c2)ccn1 (stereo not drawn)"
  result: "10 to 40 µM"
- compound: "CN1CCC(OCc2ccc(CNc3cccc4c(N)nccc34)cc2)CC1"
  result: "10 to 40 µM"
- compound: "Nc1ncc(Cl)c2cc(NCc3ccc(N4CCC(CC(F)F)C4)nc3)ccc12 (stereo not drawn)"
  result: "> 40 µM"
- compound: "CN1CCC(CCc2ccc(CNc3ccc4c(N)nccc4c3)cc2)CC1"
  result: "1 to 3 µM"
- compound: "Cc1cc2c(NCc3ccc(NCC4CCN(C)CC4)nc3)ccnc2n1C"
  result: "> 100 µM"
- compound: "CC1c2nccn2CCN1c1ccc(CNc2cccc3c(N)nccc23)cn1 (stereo not drawn)"
  result: "> 40 µM"
- compound: "Nc1nccc2c(NCc3ccc(N4CCn5c(nnc5C(F)F)C4)nc3)cccc12"
  result: "> 40 µM"
- compound: "Cn1ccnc1CC(=O)NCc1ccc(CNc2cccc3c(N)nccc23)c(F)c1"
  result: "> 40 µM"
- compound: "Nc1nccc2cc(NCc3ccc(COC4CCN(CC(F)F)CC4)cc3)ccc12"
  result: "10 to 40 µM"
- compound: "CN1CCC(CNc2ccc(CNc3c(F)cnc4[nH]ccc34)cn2)CC1"
  result: "> 100 µM"
- compound: "Cc1n[nH]c2c1CCC2Nc1cc(CNc2ccc3c(N)ncc(Cl)c3c2)ccn1 (stereo not drawn)"
  result: "> 40 µM"
- compound: "Nc1nccc2cc(NCc3ccnc(-c4cccc(CN5CCCC5)c4)c3)ccc12 [Example 5434]"
  result: "1 to 3 µM"
- compound: "Nc1nccc2c(NCc3ccc(N4CCc5nccn5CC4)nc3)cccc12"
  result: "10 to 40 µM"
- compound: "CN1CCC(NC(=O)c2cc(CNc3cccc4c(N)nccc34)ccn2)CC1"
  result: "> 40 µM"

Hey, just so you know, these numbers are from patent US20240059691A1.
